Data provenance is patent US7026443.

- targetSystem: HLA-A*2402 (human)
Listed here: items and their measured relative binding ratio (IC50 of standard peptide / IC50 of test peptide).
endpointName: relative binding ratio (IC50 of standard peptide / IC50 of test peptide)

| binder | resultValue |
| --- | --- |
| LYNLLIRCL (modifications not checked) [… (HPV18 E6, position 98, 9 amino acids)] | 0.0001 |
| FYSRIREL (modifications not checked) [FYSRIREL (HPV18 E6, position 71, 8 amino acids)] | 0.026 |
| PYKLPDLCTEL (modifications not checked) [… (HPV18 E6, position 11, 11 amino acids)] | 0.0064 |
| VFEFAFKDLF (modifications not checked) [… (HPV18 E6, position 44, 10 amino acids)] | 0.036 |
| VYCKTVLEL (modifications not checked) [… (HPV18 E6, position 33, 9 amino acids)] | 0.022 |
